# Experiment description: CCTE_Shafer_MEA_acute_spike_number: CCTE's Neural Acute Assay for Total Number of Spikes, Shafer Lab (AID 2284008)
Active and inactive are the calls of the source. The calls were made as follows: active = hit-call score of the fitted dose curve at least 0.9, where 1 is the maximum; inactive = score below 0.9.
Pick from true = active, false = inactive when you respond.

Past entries and their recorded results:
{"Smiles entry": "CC(C)(OO)c1ccccc1", "Class name": "false"}
{"Smiles entry": "CC(C)(C)CC(C)(C)c1ccc(O)cc1", "Class name": "true"}
{"Smiles entry": "CCN1CCC2(CC1)COc1cc3c(cc12)N(C(=O)c1ccc(-c2ccc(-c4nnc(C)o4)cc2C)cc1)CC3", "Class name": "true"}
{"Smiles entry": "CCCCCCCCc1ccc(O)cc1", "Class name": "true"}

Request: Status in this test for `O=C(O)C(Cl)(Cl)Cl` ?
Response: false

Request: Status in this test for `CCC(C)(C)c1ccc(O)c(C(C)(C)CC)c1` ?
Response: true

Request: Status in this test for `O=C(O)C(F)(F)C(F)(F)C(F)(F)C(F)(F)C(F)(F)C(F)(F)C(F)(F)C(F)(F)C(F)(F)C(F)(F)F` ?
Response: false

Request: Status in this test for `CC(C)(c1ccccc1)c1ccc(O)c(C(C)(C)c2ccccc2)c1` ?
Response: true
